// data source = ChEMBL document CHEMBL3621196

target.entity: Protein Sirt6 (Rattus norvegicus)
protocol.summary: Inhibition of SIRT6 in rat L6 cells assessed as increase in 2-NBDG uptake at 100 uM after 18 hrs by fluorescence plate reader relative to control
Format: cell-based
property: fold increase in 2-NBDG uptake (fold)

Cn1c(=O)c2cc(S(=O)(=O)Nc3ccc(Cc4ccncc4)cc3)ccc2n(C)c1=O = 3.1

(I) O=c1[nH]c(=O)c2cc(S(=O)(=O)Nc3ccc(Oc4cccnc4)cc3)ccc2[nH]1
(II) O=c1[nH]c(=O)c2cc(S(=O)(=O)Nc3ccc(Cn4ccnc4)cc3)ccc2[nH]1
(III) O=c1[nH]c(=O)c2cc(S(=O)(=O)Nc3cccc(CCc4ccncc4)c3)ccc2[nH]1
Arrange the 3 entries by fold increase in 2-NBDG uptake so the values rise. Reply: labels, ordered per the request.
II, III, I

* * *

target.entity: Protein Sirt6 (Rattus norvegicus)
protocol.summary: Inhibition of SIRT6 in rat L6 cells assessed as increase in radiolabelled glucose uptake at 100 uM after 18 hrs by fluorescence plate reader relative to control
Format: cell-based
property: fold increase in glucose uptake (fold)

O=c1[nH]c(=O)c2cc(S(=O)(=O)Nc3cccc(CCc4ccncc4)c3)ccc2[nH]1 = 2.8

(I) O=c1[nH]c(=O)c2cc(S(=O)(=O)Nc3ccc(Cn4ccnc4)cc3)ccc2[nH]1
(II) O=c1[nH]c(=O)c2cc(S(=O)(=O)Nc3ccc(Oc4cccnc4)cc3)ccc2[nH]1
(III) Cn1c(=O)c2cc(S(=O)(=O)Nc3ccc(Cc4ccncc4)cc3)ccc2n(C)c1=O
Arrange the 3 entries by fold increase in glucose uptake so the values rise. Reply: labels, ordered per the request.
I, II, III
(I: 0.8 fold, II: 2 fold, III: 4 fold)

* * *

Species on record: Homo sapiens
protocol.summary: Selectivity ratio of IC50 for human SIRT1 to IC50 for human SIRT6
property: Ratio IC50

O=c1[nH]c(=O)c2cc(S(=O)(=O)Nc3ccc(Oc4cccnc4)cc3)ccc2[nH]1 = 2.96

(a) O=c1[nH]c(=O)c2cc(S(=O)(=O)Nc3ccc(Cn4ccnc4)cc3)ccc2[nH]1
(b) Cn1c(=O)c2cc(S(=O)(=O)Nc3ccc(Cc4ccncc4)cc3)ccc2n(C)c1=O
(c) O=c1[nH]c(=O)c2cc(S(=O)(=O)Nc3cccc(CCc4ccncc4)c3)ccc2[nH]1
Arrange the 3 entries by Ratio IC50 so the values rise. Reply: labels, ordered per the request.
a, c, b
(a: 3.97, c: 11.5, b: 133)

* * *

target.entity: NAD-dependent protein deacylase sirtuin-6 (Homo sapiens, UniProt Q8N6T7)
Sequence (Q8N6T7 whole entry): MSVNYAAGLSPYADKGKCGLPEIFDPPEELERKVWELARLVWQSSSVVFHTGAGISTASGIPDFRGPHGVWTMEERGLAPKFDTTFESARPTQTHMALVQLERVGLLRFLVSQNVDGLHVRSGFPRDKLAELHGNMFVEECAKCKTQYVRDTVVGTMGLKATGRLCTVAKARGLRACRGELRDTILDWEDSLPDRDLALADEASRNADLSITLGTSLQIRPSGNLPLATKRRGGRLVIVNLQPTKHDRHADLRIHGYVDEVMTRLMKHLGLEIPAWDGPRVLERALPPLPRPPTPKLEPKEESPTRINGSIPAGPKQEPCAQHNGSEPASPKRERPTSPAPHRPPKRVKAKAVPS
protocol.summary: Inhibition of SIRT6 in human BxPC-3 cells assessed as increase in radiolabelled glucose uptake at 100 uM after 18 hrs by fluorescence plate reader relative to control
Assay type: cell-based
property: fold increase in glucose uptake (fold)

// known answers, use as guide
O=c1[nH]c(=O)c2cc(S(=O)(=O)Nc3ccc(Cn4ccnc4)cc3)ccc2[nH]1 = 0.6
O=c1[nH]c(=O)c2cc(S(=O)(=O)Nc3ccc(Oc4cccnc4)cc3)ccc2[nH]1 = 1.3

(a) O=c1[nH]c(=O)c2cc(S(=O)(=O)Nc3cccc(CCc4ccncc4)c3)ccc2[nH]1
(b) Cn1c(=O)c2cc(S(=O)(=O)Nc3ccc(Cc4ccncc4)cc3)ccc2n(C)c1=O
// compare measured fold increase in glucose uptake between a and b ; output the lower one Which one? Tell me its label.
a
